# Test system: Staphylococcus aureus (MSSA)
# CONDITION_PARAMETERS: 24 h
Starred links: 1 amine or outer side, 2 acyl side, 3 side chain; linkers in the order of their positions; H or OH if unused. Positions of bridges follow the written chain, without caps; N, C: chain ends. Non-standard residues stand in square brackets, D forms with d. Residues, ends and D or L forms follow the SMILES beside them. ξ: configuration not given here. *: point of attachment. ξAbu(βξ-NH2) = CC(N[*:3])C(N[*:1])C(=O)[*:2]; X36 = CC(NC(=O)CN(C)C)C(N[*:1])C(=O)[*:2]; Pentadecanoyl = CCCCCCCCCCCCCCC(=O)*; ξAsp(βξ-Me) = CC(C(=O)O)C(N)C(=O)O; Pip = O=C(O)[CH]1CCCCN1
Give MIC for every item shown.
Provide only the numeric value, understood in µg/mL.

What value of measured MIC is listed for CCCCCCCCCCCCCCC(=O)NC(CC(=O)O)C(=O)NC1C(=O)N2CCCCC2C(=O)NC(C(C)C(=O)O)C(=O)NC(CC(=O)O)C(=O)NCC(=O)NC(CC(=O)O)C(=O)NCC(=O)NC(C(C)NC(=O)CNC(=O)CCC(=O)O)C(=O)NC(C(C)C)C(=O)N2CCCC2C(=O)NC1C (stereo not drawn) ?
8

I'd like to know its MIC. The compound in question is CCCCCCCCCCCCCCC(=O)NC(CC(=O)O)C(=O)NC1C(=O)N2CCCCC2C(=O)NC(C(C)C(=O)O)C(=O)NC(CC(=O)O)C(=O)NCC(=O)NC(CC(=O)O)C(=O)NCC(=O)NC(C(C)NC(=O)CN(C)C)C(=O)NC(C(C)C)C(=O)N2CCCC2C(=O)NC1C (stereo not drawn) [Compound 268, C15-Amphomycin-9-(N,N-Dimethylglycine)] (Pentadecanoyl-D[ξAbu(βξ-NH2)][Pip][ξAsp(βξ-Me)]DGDG[X36]VP; lactam 2-C; configuration not given here)
1

====

For each of the molecules below, state its log10 MIC.
# Tested on: Staphylococcus aureus (MSSA)
# CONDITION_PARAMETERS: 24 h
Starred links: 1 amine or outer side, 2 acyl side, 3 side chain; linkers in the order of their positions; H or OH if unused. Positions of bridges follow the written chain, without caps; N, C: chain ends. Non-standard residues stand in square brackets, D forms with d. Residues, ends and D or L forms follow the SMILES beside them. ξ: configuration not given here. *: point of attachment. X33 = CCCCCCCCCCCC(=O)Nc1cc(NC(=O)CCCCCCCCCCC)cc(C(=O)*)c1; X42 = CC(NC(=O)CNCc1ccccc1)C(N[*:1])C(=O)[*:2]; ξAbu(βξ-NH2) = CC(N[*:3])C(N[*:1])C(=O)[*:2]; Pentadecanoyl = CCCCCCCCCCCCCCC(=O)*; ξAsp(βξ-Me) = CC(C(=O)O)C(N)C(=O)O; X1 = O=C(Cc1ccc(N[*:1])cc1)[*:2]; ξAbu(3ξ-NH2) = CC(N)C(N)C(=O)O; Lauroyl = CCCCCCCCCCCC(=O)*; Pip = O=C(O)[CH]1CCCCN1; ξD = NC(CC(=O)O)C(=O)O; ξPip = O=C(O)C1CCCCN1; ξV = CC(C)C(N)C(=O)O; ξP = O=C(O)C1CCCN1; OtBu = CC(C)(C)O*
Hi team, quick reminder: these entries are log10 of MIC (µg/mL).

Returns the measured log10 MIC for the input molecule. Input: CCCCCCCCCCCCCCNC(=O)NCCCC(=O)NC(CC(=O)O)C(=O)NC1C(=O)N2CCCCC2C(=O)NC(C(C)C(=O)O)C(=O)NC(CC(=O)O)C(=O)NCC(=O)NC(CC(=O)O)C(=O)NCC(=O)NC(C(C)N)C(=O)NC(C(C)C)C(=O)N2CCCC2C(=O)NC1C (stereo not shown)
0.30

Would you mind telling me what log10 MIC value was observed for CCCCCCCCCCCCCCC(=O)NC(CC(=O)O)C(=O)NC1C(=O)N2CCCCC2C(=O)NC(C(C)C(=O)O)C(=O)NC(CC(=O)O)C(=O)NCC(=O)NC(CC(=O)O)C(=O)NCC(=O)NC(C(C)NC(=O)CNC(=O)[C@H](CCCCN)NC(=O)[C@@H](N)CCCCN)C(=O)NC(C(C)C)C(=O)N2CCCC2C(=O)NC1C (stereo partly shown) ?
0.90

// returns reported log10 MIC for input CCCCCCCCCCCCCCC(=O)N[C@H](Cc1ccccc1)C(=O)NC(CC(=O)O)C(=O)NC1C(=O)N2CCCCC2C(=O)NC(C(C)C(=O)O)C(=O)NC(CC(=O)O)C(=O)NCC(=O)NC(CC(=O)O)C(=O)NCC(=O)NC(C(C)N)C(=O)NC(C(C)C)C(=O)N2CCCC2C(=O)NC1C (stereo partly drawn) [Compound 116, C15-(D-Phe)-Amphomycin] (Pentadecanoyl-[dF][ξD][ξAbu(βξ-NH2)][ξPip][ξAsp(βξ-Me)][ξD]G[ξD]G[ξAbu(3ξ-NH2)][ξV][ξP]; lactam 3-C)
0.00

Given the molecule CCCCCCCCCCCCCCC(=O)NC(CC(=O)O)C(=O)NC1C(=O)N2CCCCC2C(=O)NC(C(C)C(=O)O)C(=O)NC(CC(=O)O)C(=O)NCC(=O)NC(CC(=O)O)C(=O)NCC(=O)NC(C(C)NC(=O)CNCc2ccccc2)C(=O)NC(C(C)C)C(=O)N2CCCC2C(=O)NC1C (stereo not drawn) [Compound 245, C15-Amphomycin-9-(N-Benzyl-Gly)] (Pentadecanoyl-D[ξAbu(βξ-NH2)][Pip][ξAsp(βξ-Me)]DGDG[X42]VP; lactam 2-C; configuration not given here) , what is its reported log10 MIC?
0.00

Fill in: log10 MIC of CCCCCCCCCCCC(=O)Nc1cc(NC(=O)CCCCCCCCCCC)cc(C(=O)NC(CC(=O)O)C(=O)NC2C(=O)N3CCCCC3C(=O)NC(C(C)C(=O)O)C(=O)NC(CC(=O)O)C(=O)NCC(=O)NC(CC(=O)O)C(=O)NCC(=O)NC(C(C)N)C(=O)NC(C(C)C)C(=O)N3CCCC3C(=O)NC2C)c1 (stereo not drawn) [Compound 320] (X33-D[ξAbu(βξ-NH2)][Pip][ξAsp(βξ-Me)]DGDG[ξAbu(3ξ-NH2)]VP; lactam 2-C; configuration not given here) is ___
0.30

I would be grateful if you could share the reported log10 MIC for CCCCCCCCCCCC(=O)Nc1ccc(CC(=O)NC(CC(=O)O)C(=O)NC2C(=O)N3CCCCC3C(=O)NC(C(C)C(=O)O)C(=O)NC(CC(=O)O)C(=O)NCC(=O)NC(CC(=O)O)C(=O)NCC(=O)NC(C(C)N)C(=O)NC(C(C)C)C(=O)N3CCCC3C(=O)NC2C)cc1 (stereo not drawn) [Compound 119, C12-(p-Apa)-Amphomycin] (Lauroyl-[X1]D[ξAbu(βξ-NH2)][Pip][ξAsp(βξ-Me)]DGDG[ξAbu(3ξ-NH2)]VP; lactam 3-C; configuration not given here) .
-0.60

Any idea what log10 MIC was measured for CCCCCCCCCCCCCCC(=O)N[C@@H](CC(=O)OC(C)(C)C)C(=O)NC(CC(=O)O)C(=O)NC1C(=O)N2CCCCC2C(=O)NC(C(C)C(=O)O)C(=O)NC(CC(=O)O)C(=O)NCC(=O)NC(CC(=O)O)C(=O)NCC(=O)NC(C(C)N)C(=O)NC(C(C)C)C(=O)N2CCCC2C(=O)NC1C (stereo partly drawn) [Compound 112, C15-[Asp-(OtBu)]-Amphomycin] (Pentadecanoyl-D(OtBu)[ξD][ξAbu(βξ-NH2)][ξPip][ξAsp(βξ-Me)][ξD]G[ξD]G[ξAbu(3ξ-NH2)][ξV][ξP]; lactam 3-C) ?
-0.30

For the molecule CCCCCCCCOc1ccc(C(=O)NC(CC(=O)O)C(=O)NC2C(=O)N3CCCCC3C(=O)NC(C(C)C(=O)O)C(=O)NC(CC(=O)O)C(=O)NCC(=O)NC(CC(=O)O)C(=O)NCC(=O)NC(C(C)N)C(=O)NC(C(C)C)C(=O)N3CCCC3C(=O)NC2C)cc1 (stereo not shown) , what log10 MIC is on record?
-0.30

====

Would you mind telling me the reported MIC of each entry?
# Tested on: Staphylococcus aureus (MSSA)
# CONDITION_PARAMETERS: 24 h
Starred links: 1 amine or outer side, 2 acyl side, 3 side chain; linkers in the order of their positions; H or OH if unused. Positions of bridges follow the written chain, without caps; N, C: chain ends. Non-standard residues stand in square brackets, D forms with d. Residues, ends and D or L forms follow the SMILES beside them. ξ: configuration not given here. *: point of attachment. X6 = CC(NC(=O)C12CC3CC(CC(C3)C1)C2)C(N[*:1])C(=O)[*:2]; Propanoyl(3-SO2Ph) = O=C(CCS(=O)(=O)c1ccccc1)*; ξAbu(3ξ-NHCOCH2NH2) = CC(NC(=O)CN)C(N)C(=O)O; ξAbu(βξ-NH2) = CC(N[*:3])C(N[*:1])C(=O)[*:2]; X16 = CCC(=O)C(=O)NC(C)C(N[*:1])C(=O)[*:2]; X44 = CCNCC(=O)NC(C)C(N[*:1])C(=O)[*:2]; Pentadecanoyl = CCCCCCCCCCCCCCC(=O)*; ξAsp(βξ-Me) = CC(C(=O)O)C(N)C(=O)O; Tridecanoyl = CCCCCCCCCCCCC(=O)*; Myristoyl = CCCCCCCCCCCCCC(=O)*; ξAbu(3ξ-NH2) = CC(N)C(N)C(=O)O; 3Abz = Nc1cccc(C(=O)O)c1; 4Abz = Nc1ccc(C(=O)O)cc1; Pip = O=C(O)[CH]1CCCCN1

Param item = CCCCCCCCCCCCCCC(=O)NC(CC(=O)O)C(=O)NC1C(=O)N2CCCCC2C(=O)NC(C(C)C(=O)O)C(=O)NC(CC(=O)O)C(=O)NCC(=O)NC(CC(=O)O)C(=O)NCC(=O)NC(C(C)NC(=O)CCS(=O)(=O)c2ccccc2)C(=O)NC(C(C)C)C(=O)N2CCCC2C(=O)NC1C (stereo not drawn) [Compound 350] (Pentadecanoyl-D[ξAbu(βξ-NH2)][Pip][ξAsp(βξ-Me)]DGDG[ξAbu(βξ-NH2)](Propanoyl(3-SO2Ph))VP; lactam 2-C; configuration not given here) ; retrieve measured MIC.
64 µg/mL

Can you share its MIC? I mean this compound: CCCCCCCCCCCCCCC(=O)NC(CC(=O)O)C(=O)NC1C(=O)N2CCCCC2C(=O)NC(C(C)C(=O)O)C(=O)NC(CC(=O)O)C(=O)NCC(=O)NC(CC(=O)O)C(=O)NCC(=O)NC(C(C)NC(=O)CNCC)C(=O)NC(C(C)C)C(=O)N2CCCC2C(=O)NC1C (stereo not drawn) [Compound 243, C15-Amphomycin-9-(N-Ethyl-Gly)] (Pentadecanoyl-D[ξAbu(βξ-NH2)][Pip][ξAsp(βξ-Me)]DGDG[X44]VP; lactam 2-C; configuration not given here)
0.5 to 1 µg/mL

Item CCCCCCCCCCCCCCC(=O)NC(CC(=O)O)C(=O)NC1C(=O)N2CCCCC2C(=O)NC(C(C)C(=O)O)C(=O)NC(CC(=O)O)C(=O)NCC(=O)NC(CC(=O)O)C(=O)NCC(=O)NC(C(C)NC(=O)CCCNC(=O)CCCCCN)C(=O)NC(C(C)C)C(=O)N2CCCC2C(=O)NC1C (stereo not shown) has what recorded MIC?
8 µg/mL

Value lookup for MIC; key = CCCCCCCCCCCCCCC(=O)NC(CC(=O)O)C(=O)NC1C(=O)N2CCCCC2C(=O)NC(C(C)C(=O)O)C(=O)NC(CC(=O)O)C(=O)NCC(=O)NC(CC(=O)O)C(=O)NCC(=O)NC(C(C)NC(=O)[C@@H](N)Cc2ccc(OC)cc2)C(=O)NC(C(C)C)C(=O)N2CCCC2C(=O)NC1C (stereo partly shown)
16 µg/mL

Query (compound): CCCCCCCCCCCCCC(=O)NC(CC(=O)O)C(=O)NC1C(=O)N2CCCCC2C(=O)NC(C(C)C(=O)O)C(=O)NC(CC(=O)O)C(=O)NCC(=O)NC(CC(=O)O)C(=O)NCC(=O)NC(C(C)N)C(=O)NC(C(C)C)C(=O)N2CCCC2C(=O)NC1C (stereo not shown) ; field requested: MIC
1 µg/mL

Please look up its MIC: CCCCCCCCCCCCCCC(=O)NC(CC(=O)O)C(=O)NC1C(=O)N2CCCCC2C(=O)NC(C(C)C(=O)O)C(=O)NC(CC(=O)O)C(=O)NCC(=O)NC(CC(=O)O)C(=O)NCC(=O)NC(C(C)NC(=O)C(=O)CC)C(=O)NC(C(C)C)C(=O)N2CCCC2C(=O)NC1C (stereo not drawn) [Compound 223, C15-Amphomycin-9-(α-Ketobutyl)] (Pentadecanoyl-D[ξAbu(βξ-NH2)][Pip][ξAsp(βξ-Me)]DGDG[X16]VP; lactam 2-C; configuration not given here)
16 µg/mL

Sample CCCCCCCCCCCCC(=O)Nc1cccc(C(=O)NC(CC(=O)O)C(=O)NC2C(=O)N3CCCCC3C(=O)NC(C(C)C(=O)O)C(=O)NC(CC(=O)O)C(=O)NCC(=O)NC(CC(=O)O)C(=O)NCC(=O)NC(C(C)N)C(=O)NC(C(C)C)C(=O)N3CCCC3C(=O)NC2C)c1 (stereo not drawn) [Compound 297, C13-(M-Aminobenzoyl)-Amphomycin] ({Tridecanoyl-3Abz}-D[ξAbu(βξ-NH2)][Pip][ξAsp(βξ-Me)]DGDG[ξAbu(3ξ-NH2)]VP; lactam 2-C; configuration not given here) — what was its MIC?
0.25 µg/mL

Name the reported MIC value associated with the compound CCCCCCCCCCCCCC(=O)Nc1ccc(C(=O)NCC(=O)NC(CC(=O)O)C(=O)NC2C(=O)N3CCCCC3C(=O)NC(C(C)C(=O)O)C(=O)NC(CC(=O)O)C(=O)NCC(=O)NC(CC(=O)O)C(=O)NCC(=O)NC(C(C)NC(=O)CN)C(=O)NC(C(C)C)C(=O)N3CCCC3C(=O)NC2C)cc1 (stereo not drawn) [Compound 91, C14-PABA-Gly-Amphomycin-9-Gly] ({Myristoyl-4Abz}-GD[ξAbu(βξ-NH2)][Pip][ξAsp(βξ-Me)]DGDG[ξAbu(3ξ-NHCOCH2NH2)]VP; lactam 3-C; configuration not given here)
2 µg/mL

Tell me the measured MIC of CCCCCCCCCCCCCCC(=O)NC(CC(=O)O)C(=O)NC1C(=O)N2CCCCC2C(=O)NC(C(C)C(=O)O)C(=O)NC(CC(=O)O)C(=O)NCC(=O)NC(CC(=O)O)C(=O)NCC(=O)NC(C(C)NC(=O)CNC(=O)CCCCC)C(=O)NC(C(C)C)C(=O)N2CCCC2C(=O)NC1C (stereo not shown) , please.
32 µg/mL

Dear colleague, I am looking for the recorded MIC of the following compound: CCCCCCCCCCCCCCC(=O)NC(CC(=O)O)C(=O)NC1C(=O)N2CCCCC2C(=O)NC(C(C)C(=O)O)C(=O)NC(CC(=O)O)C(=O)NCC(=O)NC(CC(=O)O)C(=O)NCC(=O)NC(C(C)NC(=O)C23CC4CC(CC(C4)C2)C3)C(=O)NC(C(C)C)C(=O)N2CCCC2C(=O)NC1C (stereo not drawn) [Compound 232, C15-Amphomycin-9-(1-Adamantanylcarbonyl)] (Pentadecanoyl-D[ξAbu(βξ-NH2)][Pip][ξAsp(βξ-Me)]DGDG[X6]VP; lactam 2-C; configuration not given here)
4 µg/mL
